# Test system: T1, recombinant human IFN-γ protein (human, UniProt P01579 24-166, limits assumed)
# T1 construct: Bought protein; also called interferon gamma; R&D systems 285-IF-100
# T1 sequence: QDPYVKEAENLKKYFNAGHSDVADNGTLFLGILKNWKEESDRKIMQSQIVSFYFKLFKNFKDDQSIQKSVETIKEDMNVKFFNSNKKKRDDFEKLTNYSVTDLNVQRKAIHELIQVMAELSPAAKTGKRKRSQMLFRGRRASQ
# Protocol description: BLI (Octet RED96), mAb captured on AHC biosensor, recombinant human IFN-γ in solution, 1:1 model; second experiment
Assay metric: koff (s⁻¹)
State just the number; it will be interpreted in s⁻¹.

Inquiry: Let me know recorded koff for antibody 2B6 (antibody, human IgG1, V domains shown, Human IgG1 lambda) VH: EVQLVESGGGLVKPGGSLRLSCAASGFPFSRYSMHWVRQAPGKGLEWVSSMTSRTNHKYYADSLKGRFLISRDNDRDSLYLEMNSLGVEDTAIYFCARGYDTSGSDSGVDFQYWGQGTLVTVSS VL: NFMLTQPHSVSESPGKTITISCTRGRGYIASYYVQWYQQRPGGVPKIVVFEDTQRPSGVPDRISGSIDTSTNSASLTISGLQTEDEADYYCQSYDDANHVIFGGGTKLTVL , thanks.
Reply text: 5.4e-05
